TEST_DETAILS: BSK_MyoF_SRB: Viability Assessment in the BioMAP Diversity Plus: MyoF Assay (AID 2284267);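 also: total protein by SRB absorbance in parallel cultures as cytotoxicity measure; cells assessed 24 h after compound addition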
PARTICULARS: primary human lung fibroblasts
Calls of active or inactive are those of the source. The calls were made as follows: active = hit-call score of the fitted dose curve at least 0.9, where 1 is the maximum; inactive = score below 0.9.
Outcomes: 1 for active, 0 for inactive

COMPOUND	CLASS_LABEL
OC(Cc1ccccc1Cl)(Cn1cncn1)C1(Cl)CC1 (stereo not drawn)	0
c1ccc(-c2cccc(-c3ccccc3)c2)cc1	1
CCCCCCCCCCCCN(C)C	0
O=[N+]([O-])c1cccc2ccccc12	0
CCOC(=O)CCN(SN(C)C(=O)Oc1cccc2c1OC(C)(C)C2)C(C)C	0
CC1(C)[C@H](C(=O)O[C@H](C#N)c2cccc(Oc3ccccc3)c2)[C@@H]1/C=C(\Cl)C(F)(F)F	0
O=C(O)COc1cc(Cl)c(Cl)cc1Cl	0
[Cl][Sn]([c]1ccccc1)([c]1ccccc1)[c]1ccccc1	1
Oc1cccc(-c2ccccc2)c1	1
Cc1ccccc1OP(=O)(Oc1ccccc1)Oc1ccccc1	1
N#CCCC(Br)(C#N)CBr (stereo not drawn)	1
CC(C)(COCC1CO1)COCC1CO1 (stereo not drawn)	0
CCOP(=O)(OCC)SCCSCC	0
c1ccc2sc(SNC3CCCCC3)nc2c1	0
O=C(CCl)NCO	0
CCOC(=O)CC(=O)CCl	0
CCC(C)(C#N)N=NC(C)(C#N)CC (stereo not drawn)	0
CC(C)(C)c1cc([N+](=O)[O-])cc(C(C)(C)C)c1O	0
C#CCOC(=O)/C=C(C)/C=C/CC(C)CCCC(C)C (stereo not drawn)	0
C=CC(Cl)CCl (stereo not drawn)	1
NC(=O)CCl	0
O=S(=O)(C(Cl)(Cl)Cl)C(Cl)(Cl)Cl	1
O=c1oc2ccccc2c(O)c1C(CC(O)c1ccc(-c2ccc(Br)cc2)cc1)c1ccccc1 (stereo not drawn)	1
